target: UniProt:P37288
Sequence (P37288 whole entry): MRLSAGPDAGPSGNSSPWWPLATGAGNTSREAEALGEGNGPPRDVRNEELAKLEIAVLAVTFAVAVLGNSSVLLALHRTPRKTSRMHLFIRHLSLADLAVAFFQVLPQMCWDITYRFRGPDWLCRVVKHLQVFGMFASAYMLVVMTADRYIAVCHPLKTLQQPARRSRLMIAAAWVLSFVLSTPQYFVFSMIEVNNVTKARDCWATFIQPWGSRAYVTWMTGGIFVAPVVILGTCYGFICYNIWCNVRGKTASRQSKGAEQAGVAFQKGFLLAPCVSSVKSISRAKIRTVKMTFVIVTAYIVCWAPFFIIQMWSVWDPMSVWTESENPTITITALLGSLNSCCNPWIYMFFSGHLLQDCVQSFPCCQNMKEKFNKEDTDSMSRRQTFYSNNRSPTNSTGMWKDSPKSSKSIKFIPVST
assay text: Agonist activity at recombinant human vasopressin V1a receptor expressed in HEK293 cells by luciferase reporter gene assay
Type: functional, cell-based
experimental context: read-out: EC50
pEC50: −log10 of the molar value. Bridge positions count the residues as written; N and C are the ends. Square brackets hold non-standard residues; d marks the D form. Peptide text beside a SMILES is read from it. * marks the point of attachment. 2Thi = N[C@@H](Cc1cccs1)C(=O)O; 3Thi = N[C@@H](Cc1ccsc1)C(=O)O; Cha = N[C@@H](CC1CCCCC1)C(=O)O; Orn = NCCC[C@H](N)C(=O)O; Dab = NCC[C@H](N)C(=O)O; X3 = OCCOCCN*
endpoint: pEC50

// below: answered compounds
For the compound shown here, CC[C@H](C)[C@@H]1NC(=O)[C@H](Cc2cccs2)NC(=O)[C@@H](N)CSSC[C@@H](C(=O)N2CCC[C@H]2C(=O)N[C@@H](CCN)C(=O)NCC(N)=O)NC(=O)[C@H](CC(N)=O)NC(=O)[C@H](CC(N)=O)NC1=O (H-C[2Thi]INNCP[Dab]G-NH2; disulfide 1-6) , give the reported pEC50.
7.92

I am curious: what pEC50 value has been reported for CC[C@H](C)[C@@H]1NC(=O)[C@H](Cc2ccccc2)NC(=O)[C@@H](N)CSSC[C@@H](C(=O)N2CCC[C@H]2C(=O)N[C@@H](CCCN)C(=O)NCC(N)=O)NC(=O)[C@H](CC(N)=O)NC(=O)[C@H](CC(=O)NCCOCCO)NC1=O (H-CFID(X3)NCP[Orn]G-NH2; disulfide 1-6) ?
8.32

Value lookup for pEC50; key = CCNC(=O)C[C@@H]1NC(=O)[C@H]([C@@H](C)CC)NC(=O)[C@H](Cc2ccccc2)NC(=O)[C@@H](N)CSSC[C@@H](C(=O)N2CCC[C@H]2C(=O)N[C@@H](CCCN)C(=O)NCC(N)=O)NC(=O)[C@H](CC(N)=O)NC1=O (H-CFID(NHEt)NCP[Orn]G-NH2; disulfide 1-6)
8.24

[A] CC[C@H](C)[C@@H]1NC(=O)[C@H](Cc2cccs2)NC(=O)[C@@H](N)CSSC[C@@H](C(=O)N2CCC[C@H]2C(=O)N[C@@H](CCCN)C(=O)NCC(N)=O)NC(=O)[C@H](CC(N)=O)NC(=O)[C@H](CC(N)=O)NC1=O (H-C[2Thi]INNCP[Orn]G-NH2; disulfide 1-6)
[B] CC[C@H](C)[C@@H]1NC(=O)[C@H](CC2CCCCC2)NC(=O)[C@@H](N)CSSC[C@@H](C(=O)N2CCC[C@H]2C(=O)N[C@@H](CCN)C(=O)NCC(N)=O)NC(=O)[C@H](CC(N)=O)NC(=O)[C@H](CC(N)=O)NC1=O (H-C[Cha]INNCP[Dab]G-NH2; disulfide 1-6)
[C] CC[C@H](C)[C@@H]1NC(=O)[C@H](Cc2ccsc2)NC(=O)[C@@H](N)CSSC[C@@H](C(=O)N2CCC[C@H]2C(=O)N[C@@H](CCN)C(=O)NCC(N)=O)NC(=O)[C@H](CC(N)=O)NC(=O)[C@H](CC(N)=O)NC1=O (H-C[3Thi]INNCP[Dab]G-NH2; disulfide 1-6)
List from greatest to least pEC50. Output spec: a listing of the labels in the requested order.
B, C, A

From: ChEMBL document CHEMBL1817572
